Test system: K-562 leukemia
Assay: NCI-60 one-dose screen, 48 h
Settings: 10 µM unless noted
The panel holds about 83,000 compounds, 20% with a hit somewhere; the sample as a whole holds those more often. Active and inactive are the calls of the source. How the source made its calls: active means growth percent below 10; inactive means the rest.
The reply should be one of these categories: True (active), False (inactive)

INSERT INTO measurements (compound, assigned_category) VALUES
  ('COc1cc(-c2nn(-c3cccc(NC(=O)Nc4ccc(Cl)c(Cl)c4)c3)cc2-c2ccncc2)ccc1Cl', 'True'),
  ('CCOC(=O)CC(=O)OC', 'False'),
  ('Cc1ccc(-c2csc(NC(=O)CCCCl)n2)cc1', 'False'),
  ('O=C(Nc1ccc2c(c1)OCCO2)C(=O)c1c[nH]c2ccccc12', 'False'),
  ('CCOC(=O)c1ccc2c(c1)c1c(C)c3cccnc3c(C)c1n2C', 'False'),
  ('COc1ccc(/C=C2\Oc3cc(OCCCN4CCCC4)ccc3C2=O)cc1', 'True');

Q: Dear all, I need the recorded test outcome for O=C1/C(=C/c2ccccc2)Oc2ccc(O)c(I)c21 , thank you.
Result: False

Q: What did the test return for COc1cc(-c2nn(-c3cccc(NC(=O)c4ccccc4)c3)cc2-c2ccncc2)ccc1Cl ?
Result: True

Q: For Cc1nc2ncccc2nc1Nc1ccc(S(=O)(=O)Nc2ccccn2)cc1 , what call appears in the results of this test?
Result: False

Q: Fill in: this test's call for CCCCCCCCC(C)OC(=O)c1nn(C(C)=O)c2ccccc12 (stereo unspecified) is ___
Result: False

Q: Assay outcome for C=C[C@@H]1C[C@@H]2Cc3cc(F)ccc3N1O2 : what was it?
Result: False

----------
System: NCI-H226 lung
Assay: NCI-60 one-dose screen, 48 h (100 = growth as untreated, 0 = no growth, -100 = all killed)
Details: 10 µM unless noted
The panel holds about 83,000 compounds, 20% with a hit somewhere; the sample as a whole holds those more often.
What growth was measured for each of the following?
Numbers only, in %.

Completed entries (count: 5):
INSERT INTO results (molecule, unit_spec, observed) VALUES
  ('CCC(C)/C(=C\C#N)NCCCN/C(=C/C#N)C(C)CC (configuration not stated)', '%', 103),
  ('O=C1Nc2ccc(Cl)cc2C12Nc1cc(Cl)ccc1S2 (configuration not stated)', '%', 105),
  ('COc1ccc(OC)c(C2OC(c3ccc4ccccc4c3O)=NN2C(C)=O)c1 (configuration not stated)', '%', 87.1),
  ('CC1=C(C#N)C(=O)NC(C)C1 (configuration not stated)', '%', 111),
  ('NC1N=C(SCC(=O)N2CCN(c3cc4c(cc3F)c(=O)c(C(=O)O)cn4C3CC3)CC2)NC(=O)/C1=C/c1ccc(Cl)cc1 (configuration not stated)', '%', 106);

Hi there! I need growth for each item below, if you can.
1. COc1cc(/C=C/c2cc(/C=C/c3ccc(O)c(OC)c3)n(C(N)=O)n2)ccc1O
2. Cc1ccc2ccccc2c1C[n+]1ccccc1
3. COc1ccc(-c2nc(/C=N/Nc3cc(C)nc4ccc(Cl)cc34)c(C)o2)cc1
4. CCO/C=N/C1=C(C#N)C(c2ccc(Cl)cc2)c2c(c3ccc(C)cc3[nH]c2=O)O1 (configuration not stated)
5. CC(C)(C)n1cc(-c2ccnc(NCCCNS(=O)(=O)c3ccc(F)cc3)c2)c(-c2cccc(O)c2)n1
6. COc1ccc(-n2c(=S)sc3c(Cl)nc(C)nc32)c(OC)c1

Result:
11.9
99.3
75.6
78.9
51.2
100

Quick one: give me growth for each item below, same order please.
1. CCc1cnc(=S)n(-c2ccccc2)c1
2. CCOC(=O)c1cn2c3c(cc(C)cc3c1=O)C(=O)/C(=C/c1ccccc1)C2
3. Fc1ccc(-c2nc(-c3nc4ncccc4[nH]3)cc3c2[nH]c2ccccc23)cc1F
4. COc1ccc(-c2ccc(C)n2-c2ccc(-c3nc4cc(Cl)ccc4s3)cc2)cc1
5. O=C(O)COc1ccc(-c2cssc2=S)cc1
6. COc1ccc(C(=O)N2NC(=O)/C(=C/c3ccc(F)cc3)N=C2c2ccccc2)cc1

Result:
1. 110
2. 94
3. 88.5
4. 78.7
5. 99.1
6. 96.5

Please supply growth for each of the following items, keeping them in order.
1. Cc1cc(C2(c3cc(C)c(O)cc3C)OS(=O)(=O)c3ccccc32)c(C)cc1O
2. OCc1ncc(-c2ccccc2)s1
3. COc1ccc(/C=C2\Oc3cc(OCCCN4CCCC4)ccc3C2=O)cc1
4. C[n+]1c(/C=C/c2c(O)ccc3ccccc23)ccc2ccccc21
5. O=S(=O)(NCCCNc1nccc(-n2ccc3cccnc32)n1)c1ccc(Br)cc1

Result:
1. 106
2. 125
3. 93
4. 47.5
5. 96.5

----------
System: OVCAR-3 ovarian
Assay: NCI-60 one-dose screen, 48 h (100 = growth as untreated, 0 = no growth, -100 = all killed)
Details: 10 µM unless noted
This is part of a sample that, as a whole, favours compounds with a hit. Of some 83,000 tested, about 20% had one in any assay. Active and inactive are the calls of the source. How the source made its calls: active means growth percent below 10; inactive means the rest.
MEASURED_QUANTITY: growth

Consider the worked cases shown below.
INSERT INTO results (molecule, measured_quantity, observed) VALUES
  ('Cc1ccc(NS(=O)(=O)c2cc(C)ccc2C)cc1', 'growth', '3.62% (active)'),
  ('NC(=O)c1c(NC(=S)Nc2ccc(OC(F)(F)F)cc2)sc2c1CCC1(C2)OCCO1', 'growth', '109% (inactive)'),
  ('COc1ccc(/C=C/c2c(C(C)=O)c(C)nc3ccccc23)cc1', 'growth', '97.6% (inactive)'),
  ('Cc1nc2c3c(ncn2n1)Oc1c(c(=O)[nH]c2ccccc12)C3c1ccc(Cl)cc1 (stereo not given)', 'growth', '99.2% (inactive)'),
  ('Cc1ccc(S(=O)(=O)c2nc(-c3ccccc3)oc2S(C)(=O)=O)cc1', 'growth', '-86.8% (active)');

I need growth for every entry listed below, if you could help.
1. CC(C)(C)n1cc(-c2ccnc(NCCCNS(=O)(=O)c3ccc(F)cc3)c2)c(-c2cccc(O)c2)n1
2. COc1ccc(C(=O)c2cc(OC)c3c(c2)OCO3)cc1O
3. COc1ccc(-c2c(-c3cc(OC)c4c(c3)OCO4)noc2N)cc1

Result:
["56.1% (inactive)", "-41.7% (active)", "-47.3% (active)"]

Give growth for each of the items listed below.
1. COc1cc(/C=C/c2cc(/C=C/c3ccc(O)c(OC)c3)n(C(N)=O)n2)ccc1O
2. O=C1C(Cl)=C(Nc2ccccn2)C(=O)c2ccccc21

Result:
1: -72.7% (active); 2: 26.9% (inactive)

Provide growth values for the following items, in order.
1. COc1ccc(-n2c(-c3ccccc3)c(-c3ccccc3)c3c(SCC(=O)N/N=C/c4ccc(Cl)cc4)ncnc32)cc1
2. COc1ccc(Nc2ncccc2C(=O)NCc2cn(Cc3cccc(Oc4ccccc4)c3)nn2)cc1

Result:
85.9% (inactive)
-4.73% (active)

Record growth for all entries; do not skip any.
1. O=[N+]([O-])c1ccc(-c2cn(-c3ccccc3)c(-c3ccccc3)n2)cc1
2. CCOC(=O)CN1/C(=N/c2sc3c(c2C(=O)OCC)CCN(C(=O)OCC)C3)SC(=O)/C1=C\C(=O)OC
3. Nc1ncnc2c1c(-c1ccc(Oc3ccccc3)cc1)nn2C[C@@H]1SSC[C@@H]1O

Result:
1: 97.4% (inactive); 2: 92.1% (inactive); 3: 3.23% (active)

----------
Hi there, I'd appreciate the recorded growth for every entry that follows.
System: K-562 leukemia
Test: NCI-60 one-dose screen, 48 h (100 = growth as untreated, 0 = no growth, -100 = all killed)
Conditions: 10 µM unless noted
The panel holds about 83,000 compounds, 20% with a hit somewhere; the sample as a whole holds those more often. Active and inactive are the calls of the source. How the source made its calls: active means growth percent below 10; inactive means the rest.

INSERT INTO measurements (compound, measured_quantity, observed) VALUES
  ('COc1ccc(-c2ccc(C)n2-c2ccc(-c3nc4ccccc4s3)cc2)cc1', 'growth', '91.6% (inactive)');

Give growth for all compounds that follow.
1. O=c1ccn(-c2ncnc3nc[nH]c23)cc1
2. COc1cc2c(c(OC)c1OC)-c1ccc(N)c(=O)cc1[C@@H](NC(C)=O)CC2
3. Brc1cccc(-c2cc(-c3ccc4c(c3)OCCCO4)[nH]n2)c1
4. COC(=O)c1cc(=O)nc(N/N=C/c2ccco2)s1
5. COc1ccc(/C=C2\N=C(c3ccccc3)N(C(=O)c3ccccc3O)NC2=O)cc1
6. COc1ccc(C2NN=C3c4ccccc4CCC32)cc1 (stereo not drawn)
7. COc1ccc(Cn2cc3c(c2-c2cc(OC)c(OC)c(OC)c2)CCc2cnoc2-3)cc1

Result:
1. 89.9% (inactive)
2. 17.3% (inactive)
3. 17.4% [25 µM] (inactive)
4. 101% (inactive)
5. 86.5% (inactive)
6. 10.2% (inactive)
7. 14.6% (inactive)

// data source = PubChem BioAssay (NCI)
